RECORDED CONDITIONS: 363.15 K; 100 kPa; Liquid; Concentric cylinders viscometry
Measured viscosity values are reported for all entries that follow.
Answer with a number only, understood to be in mPa·s.

# count of solved cases: 4
[
  {
    "COMPOUND": "CCCCn1cc[n+](C)c1.N#CN=C=[N-] [1-butyl-3-methylimidazolium dicyanamide]",
    "RECORDED METRIC": "viscosity",
    "MEAS VALUE": 5.677
  },
  {
    "COMPOUND": "CC(=O)[O-].CCCCn1cc[n+](C)c1 [1-butyl-3-methylimidazolium acetate]",
    "RECORDED METRIC": "viscosity",
    "MEAS VALUE": 15
  },
  {
    "COMPOUND": "CCCCn1cc[n+](C)c1.F[B-](F)(F)F [1-butyl-3-methylimidazolium tetrafluoroborate]",
    "RECORDED METRIC": "viscosity",
    "MEAS VALUE": 11.2
  },
  {
    "COMPOUND": "CCCCn1cc[n+](C)c1.COP(=O)([O-])OC [1-butyl-3-methyl-1H-imidazolium dimethylphosphate]",
    "RECORDED METRIC": "viscosity",
    "MEAS VALUE": 26.33
  }
]

Enquiry: Requested field: viscosity. Item: CCCCn1cc[n+](C)c1.N#C[S-] [1-butyl-3-methylimidazolium thiocyanate]
Return: 8.436

----------
Measured mass density values are reported for all entries that follow.
MEASUREMENT NOTES: xn = mol fraction of the nth substance listed
RECORDED CONDITIONS: 343.15 K; 100 kPa; Liquid; Vibrating tube method; x2 = 0.25
± gives the expanded uncertainty stated by the source.
Write your answer as a measured quantity: the number, then the unit.

[
  {
    "COMPOUND": "CC(=O)[O-].CCCCn1cc[n+](C)c1 [1-butyl-3-methylimidazolium acetate] + CCCC[n+]1ccn(C)c1.O=S(=O)([N-]S(=O)(=O)C(F)(F)F)C(F)(F)F",
    "RECORDED METRIC": "mass density",
    "MEAS VALUE": "1149.7 ± 1 kg/m3"
  },
  {
    "COMPOUND": "CCCCn1cc[n+](C)c1.F[P-](F)(F)(F)(F)F [1-butyl-3-methylimidazolium hexafluorophosphate] + CCCC[n+]1ccn(C)c1.O=S(=O)([N-]S(=O)(=O)C(F)(F)F)C(F)(F)F",
    "RECORDED METRIC": "mass density",
    "MEAS VALUE": "1351 ± 0.7 kg/m3"
  }
]

Enquiry: Requested field: mass density. Item: CCCCn1cc[n+](C)c1.O=S(=O)([O-])C(F)(F)F [1-butyl-3-methylimidazolium trifluoromethanesulfonate] + CCCC[n+]1ccn(C)c1.O=S(=O)([N-]S(=O)(=O)C(F)(F)F)C(F)(F)F
Return: 1302.2 ± 0.7 kg/m3

Enquiry: Requested field: mass density. Item: CCCCn1cc[n+](C)c1.COP(=O)([O-])OC [1-butyl-3-methyl-1H-imidazolium dimethylphosphate] + CCCC[n+]1ccn(C)c1.O=S(=O)([N-]S(=O)(=O)C(F)(F)F)C(F)(F)F
Return: 1206.1 ± 1 kg/m3

Enquiry: Requested field: mass density. Item: CCCCn1cc[n+](C)c1.N#C[S-] [1-butyl-3-methylimidazolium thiocyanate] + CCCC[n+]1ccn(C)c1.O=S(=O)([N-]S(=O)(=O)C(F)(F)F)C(F)(F)F
Return: 1164 ± 1 kg/m3

----------
RECORDED CONDITIONS: 293.15 K; 100 kPa; Liquid; Vibrating tube method
RECORDED METRIC: mass density (kg/m3)
Answer with a number only, understood to be in kg/m3.

[
  {
    "COMPOUND": "CCCCn1cc[n+](C)c1.N#C[S-] [1-butyl-3-methylimidazolium thiocyanate]",
    "mass density / kg/m3": 1073.2
  },
  {
    "COMPOUND": "CCCCn1cc[n+](C)c1.F[B-](F)(F)F [1-butyl-3-methylimidazolium tetrafluoroborate]",
    "mass density / kg/m3": 1205.2
  },
  {
    "COMPOUND": "CCCCn1cc[n+](C)c1.COP(=O)([O-])OC [1-butyl-3-methyl-1H-imidazolium dimethylphosphate]",
    "mass density / kg/m3": 1161.4
  },
  {
    "COMPOUND": "CCCCn1cc[n+](C)c1.N#CN=C=[N-] [1-butyl-3-methylimidazolium dicyanamide]",
    "mass density / kg/m3": 1063.4
  },
  {
    "COMPOUND": "CC(=O)[O-].CCCCn1cc[n+](C)c1 [1-butyl-3-methylimidazolium acetate]",
    "mass density / kg/m3": 1056
  }
]

Read the next record carefully.
Enquiry: Requested field: mass density. Item: CCCC[n+]1ccn(C)c1.O=S(=O)([N-]S(=O)(=O)C(F)(F)F)C(F)(F)F
Return: 1442.1

----------
Measured mass density values are reported for all entries that follow.
MEASUREMENT NOTES: xn = mol fraction of the nth substance listed
RECORDED CONDITIONS: 323.15 K; 100 kPa; Liquid; Vibrating tube method; x2 = 0.25
Answer with a number only, understood to be in kg/m3.

# count of solved cases: 4
[
  {
    "MOLECULE": "CCCCn1cc[n+](C)c1.O=S(=O)([O-])C(F)(F)F [1-butyl-3-methylimidazolium trifluoromethanesulfonate] + CCCC[n+]1ccn(C)c1.O=S(=O)([N-]S(=O)(=O)C(F)(F)F)C(F)(F)F",
    "UOM": "kg/m3",
    "MEAS VALUE": 1318.7
  },
  {
    "MOLECULE": "CCCCn1cc[n+](C)c1.COP(=O)([O-])OC [1-butyl-3-methyl-1H-imidazolium dimethylphosphate] + CCCC[n+]1ccn(C)c1.O=S(=O)([N-]S(=O)(=O)C(F)(F)F)C(F)(F)F",
    "UOM": "kg/m3",
    "MEAS VALUE": 1220.4
  },
  {
    "MOLECULE": "CC(=O)[O-].CCCCn1cc[n+](C)c1 [1-butyl-3-methylimidazolium acetate] + CCCC[n+]1ccn(C)c1.O=S(=O)([N-]S(=O)(=O)C(F)(F)F)C(F)(F)F",
    "UOM": "kg/m3",
    "MEAS VALUE": 1163.9
  },
  {
    "MOLECULE": "CCCCn1cc[n+](C)c1.N#C[S-] [1-butyl-3-methylimidazolium thiocyanate] + CCCC[n+]1ccn(C)c1.O=S(=O)([N-]S(=O)(=O)C(F)(F)F)C(F)(F)F",
    "UOM": "kg/m3",
    "MEAS VALUE": 1177.7
  }
]

Read the next record carefully.
Enquiry: Requested field: mass density. Item: CCCCn1cc[n+](C)c1.F[P-](F)(F)(F)(F)F [1-butyl-3-methylimidazolium hexafluorophosphate] + CCCC[n+]1ccn(C)c1.O=S(=O)([N-]S(=O)(=O)C(F)(F)F)C(F)(F)F
Return: 1367.9

----------
MEASUREMENT NOTES: xn = mol fraction of the nth substance listed
RECORDED CONDITIONS: 358.15 K; 100 kPa; Liquid; Concentric cylinders viscometry; x2 = 0.25
Would you mind labelling by viscosity? At or over 20 mPa·s is YES, under is NO.

Solved cases (4 shown):
[
  {
    "COMPOUND": "CCCCn1cc[n+](C)c1.N#C[S-] [1-butyl-3-methylimidazolium thiocyanate] + CCCC[n+]1ccn(C)c1.O=S(=O)([N-]S(=O)(=O)C(F)(F)F)C(F)(F)F",
    "CATEGORY LABEL": "NO"
  },
  {
    "COMPOUND": "CCCCn1cc[n+](C)c1.O=S(=O)([O-])C(F)(F)F [1-butyl-3-methylimidazolium trifluoromethanesulfonate] + CCCC[n+]1ccn(C)c1.O=S(=O)([N-]S(=O)(=O)C(F)(F)F)C(F)(F)F",
    "CATEGORY LABEL": "NO"
  },
  {
    "COMPOUND": "CC(=O)[O-].CCCCn1cc[n+](C)c1 [1-butyl-3-methylimidazolium acetate] + CCCC[n+]1ccn(C)c1.O=S(=O)([N-]S(=O)(=O)C(F)(F)F)C(F)(F)F",
    "CATEGORY LABEL": "NO"
  },
  {
    "COMPOUND": "CCCCn1cc[n+](C)c1.COP(=O)([O-])OC [1-butyl-3-methyl-1H-imidazolium dimethylphosphate] + CCCC[n+]1ccn(C)c1.O=S(=O)([N-]S(=O)(=O)C(F)(F)F)C(F)(F)F",
    "CATEGORY LABEL": "YES"
  }
]

Okay, now this compound:
Enquiry: Textbook exercise: given the entry CCCCn1cc[n+](C)c1.F[P-](F)(F)(F)(F)F [1-butyl-3-methylimidazolium hexafluorophosphate] + CCCC[n+]1ccn(C)c1.O=S(=O)([N-]S(=O)(=O)C(F)(F)F)C(F)(F)F , state whether its viscosity is greater than or equal to 20 mPa·s.
Return: NO

Hey, just so you know, these numbers are from the NIST ThermoML archive (doi:10.1021/acs.jced.6b00178).
